# TESTED TARGET: LRRK2 (endogenous, HiBit tagged) (Homo sapiens, UniProt Q5S007)
# Construct: endogenous in cells; host or cells: HEK293 cells with HiBit knock-in at the endogenous LRRK2 locus, stably expressing firefly luciferase
# Sequence (Q5S007 whole entry): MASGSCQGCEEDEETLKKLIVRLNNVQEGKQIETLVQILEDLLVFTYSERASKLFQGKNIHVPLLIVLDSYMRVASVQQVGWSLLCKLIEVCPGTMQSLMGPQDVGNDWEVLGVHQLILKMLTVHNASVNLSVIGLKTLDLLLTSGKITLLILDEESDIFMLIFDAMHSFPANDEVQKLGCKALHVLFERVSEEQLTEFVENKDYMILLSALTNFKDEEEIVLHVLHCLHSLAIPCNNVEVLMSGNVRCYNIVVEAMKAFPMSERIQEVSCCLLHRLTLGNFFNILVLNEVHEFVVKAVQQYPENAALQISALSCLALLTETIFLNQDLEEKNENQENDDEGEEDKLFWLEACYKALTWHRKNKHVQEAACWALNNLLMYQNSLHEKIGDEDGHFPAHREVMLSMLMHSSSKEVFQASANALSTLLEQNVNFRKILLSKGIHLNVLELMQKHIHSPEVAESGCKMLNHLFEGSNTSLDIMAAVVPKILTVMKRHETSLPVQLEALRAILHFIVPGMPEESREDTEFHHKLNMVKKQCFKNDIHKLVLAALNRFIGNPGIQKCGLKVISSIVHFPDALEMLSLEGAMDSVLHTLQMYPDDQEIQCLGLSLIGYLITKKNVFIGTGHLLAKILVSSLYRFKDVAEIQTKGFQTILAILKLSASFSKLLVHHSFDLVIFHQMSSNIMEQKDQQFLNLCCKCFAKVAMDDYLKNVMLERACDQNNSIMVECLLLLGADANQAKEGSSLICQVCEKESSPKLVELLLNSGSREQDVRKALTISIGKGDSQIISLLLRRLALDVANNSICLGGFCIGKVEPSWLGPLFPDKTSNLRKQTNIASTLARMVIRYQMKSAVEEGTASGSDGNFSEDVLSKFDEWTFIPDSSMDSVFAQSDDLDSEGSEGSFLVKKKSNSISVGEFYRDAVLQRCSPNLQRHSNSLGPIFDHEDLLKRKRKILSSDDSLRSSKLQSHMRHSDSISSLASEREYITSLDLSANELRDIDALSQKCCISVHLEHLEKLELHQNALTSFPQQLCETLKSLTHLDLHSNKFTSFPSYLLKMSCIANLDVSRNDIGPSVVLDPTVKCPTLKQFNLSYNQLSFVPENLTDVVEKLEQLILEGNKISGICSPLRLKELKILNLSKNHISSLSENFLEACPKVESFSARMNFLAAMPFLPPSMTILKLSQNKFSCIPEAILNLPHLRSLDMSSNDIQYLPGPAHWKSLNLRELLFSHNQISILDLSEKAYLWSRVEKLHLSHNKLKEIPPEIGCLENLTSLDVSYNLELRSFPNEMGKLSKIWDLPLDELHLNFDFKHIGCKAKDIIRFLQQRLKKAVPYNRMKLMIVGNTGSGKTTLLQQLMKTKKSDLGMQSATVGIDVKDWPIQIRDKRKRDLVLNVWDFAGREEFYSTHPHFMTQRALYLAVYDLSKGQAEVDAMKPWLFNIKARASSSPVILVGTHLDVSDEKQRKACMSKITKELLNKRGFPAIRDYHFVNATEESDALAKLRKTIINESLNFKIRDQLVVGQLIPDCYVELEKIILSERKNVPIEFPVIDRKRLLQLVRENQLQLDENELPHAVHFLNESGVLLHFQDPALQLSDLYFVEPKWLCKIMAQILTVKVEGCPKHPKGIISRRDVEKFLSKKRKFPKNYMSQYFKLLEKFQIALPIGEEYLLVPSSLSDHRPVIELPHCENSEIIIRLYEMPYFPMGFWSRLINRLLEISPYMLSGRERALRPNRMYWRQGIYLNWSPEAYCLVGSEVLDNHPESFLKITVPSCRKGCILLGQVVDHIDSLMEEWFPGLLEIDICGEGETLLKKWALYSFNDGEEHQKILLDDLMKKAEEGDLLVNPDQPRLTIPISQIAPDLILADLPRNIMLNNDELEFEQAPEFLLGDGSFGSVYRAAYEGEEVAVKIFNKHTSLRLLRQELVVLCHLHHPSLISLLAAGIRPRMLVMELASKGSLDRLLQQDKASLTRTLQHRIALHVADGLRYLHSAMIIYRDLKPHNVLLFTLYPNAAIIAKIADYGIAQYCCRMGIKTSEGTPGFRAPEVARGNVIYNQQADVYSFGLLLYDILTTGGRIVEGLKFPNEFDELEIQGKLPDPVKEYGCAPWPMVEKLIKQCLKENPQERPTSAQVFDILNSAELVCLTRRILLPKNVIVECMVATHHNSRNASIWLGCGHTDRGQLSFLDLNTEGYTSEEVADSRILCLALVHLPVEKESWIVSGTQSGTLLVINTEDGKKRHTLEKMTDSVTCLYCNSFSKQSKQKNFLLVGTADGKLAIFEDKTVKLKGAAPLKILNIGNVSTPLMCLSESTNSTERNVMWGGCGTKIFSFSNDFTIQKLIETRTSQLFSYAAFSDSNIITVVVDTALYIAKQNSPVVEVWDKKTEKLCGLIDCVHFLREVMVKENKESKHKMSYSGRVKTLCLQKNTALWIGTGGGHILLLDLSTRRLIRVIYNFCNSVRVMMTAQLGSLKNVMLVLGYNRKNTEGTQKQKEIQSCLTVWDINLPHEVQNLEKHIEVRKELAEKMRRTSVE
# EXPERIMENT: Endogenous LRRK2 degradation assay, endogenous gene C-terminally HiBit-tagged in HEK293 cells (Nano-Glo Dual Luciferase)
# Format: cell-based
# TEST SETTINGS: endogenous HiBit-tagged LRRK2 in HEK293 cells, 24 hours treatment; read-out: **Endogenous WT Dmax (%)
OUTCOME MEASURE: Dmax

Solved entries (count: 4):
| COMPOUND | DATA VALUE |
| --- | --- |
| COc1c(N2CCN(C[C@@H]3CO[C@@H](CN4CCN(c5cc(-c6[nH]nc7ccc(OC8(C)CC8)cc67)ncn5)CC4)CO3)CC2)ccc2c1CN(C1CCC(=O)NC1=O)C2=O (some centres unmarked) | ≥ 70% |
| CC1(Oc2ccc3n[nH]c(-c4cc(N5CC(OC6CCN(CC7CCN(c8ccc9c(c8F)CN(C8CCC(=O)NC8=O)C9=O)CC7)CC6)C5)ncn4)c3c2)CC1 (centres unmarked) | ≥ 70% |
| C[C@H]1CN(CC2CCN(CC3CCN(c4cc(-c5n[nH]c6ccc(OC7(C)CC7)cc56)ncn4)CC3)CC2)CCN1c1ccc2c(c1F)CN(C1CCC(=O)NC1=O)C2=O (some centres unmarked) | 50 to 70% |
| CC1(Oc2ccc3n[nH]c(-c4cc(N5CCN(C[C@H]6CO[C@H](CN7CCN(c8ccc9c(c8F)CN(C8CCC(=O)NC8=O)C9=O)CC7)CO6)CC5)ncn4)c3c2)CC1 (some centres unmarked) | 50 to 70% |

Field: next compound
// Dmax lookup, compound = CC1(Oc2ccc3n[nH]c(-c4cc(N5CCC(O[C@H]6C[C@H](N7CCC8(CC7)CN(c7ccc9c(c7F)CN(C7CCC(=O)NC7=O)C9=O)C8)C6)CC5)ncn4)c3c2)CC1 (some centres unmarked) , result: 50 to 70%

---

# TESTED TARGET: G2019S LRRK2 (Homo sapiens, UniProt Q5S007, G2019S)
# Construct: expressed in transfected cells; host or cells: HEK293 (ATCC CRL-1573), transient transfection, mammalian expression vector with ubiquitin promoter
# Sequence (Q5S007 whole entry G2019S): as the sequence (Q5S007 whole entry) above, with G2019S counted along it
# EXPERIMENT: LRRK2 degradation assay, HiBit-tagged G2019S LRRK2 expressed from plasmid in HEK293 cells (Nano-Glo Dual-Luciferase)
# Assay type: cell-based
# TEST SETTINGS: HiBit-tagged G2019S LRRK2 in HEK293 cells, 24 hours
# Experimental: Exemplary Assay for Testing LRRK2 Degradation Driven by Exemplary Hetero-Bifunctional Compounds Designed to Target LRRK2 […] While the transfection mixes were incubating, HEK293 cells (acquired from ATCC; ATCC CRL-1573) were harvested with trypsin. […] The cells were mixed well and counted. […] Developing Plates and Analyzing Data. […] Optically clear seals were added to each plate and each plate was incubated for 20 minutes with shaking for at least 10 minutes, and then read on a plate reader. […]
Measured Dmax of individual entries

// Dmax lookup, molecule = C[C@H]1CN(c2cc(-c3n[nH]c4ccc(OC5(C)CC5)cc34)ncn2)CCN1CCN1CCN(C(=O)C2CCN(c3ccc4c(c3)C(=O)N(C3CCC(=O)NC3=O)C4=O)CC2)CC1 (some centres unmarked) [Compound 56] , result: ≥ 70%

// Dmax lookup, molecule = CC1(Oc2ccc3[nH]nc(-c4cc(N5CCC(CN6CCN(C(=O)C7CCN(c8ccc9c(c8)C(=O)N(C8CCC(=O)NC8=O)C9=O)CC7)CC6)CC5)ncn4)c3c2)CC1 (centres unmarked) [Compound 94] , result: 50 to 70%

// Dmax lookup, molecule = CC1(Oc2ccc3n[nH]c(-c4cc(N5CCN(CC6(F)CCN(C(=O)C7CN(c8ccc9c(c8)C(=O)N(C8CCC(=O)NC8=O)C9=O)C7)CC6)CC5)ncn4)c3c2)CC1 (centres unmarked) [Compound 136] , result: 50 to 70%

// Dmax lookup, molecule = C[C@H]1CN(c2cc(-c3n[nH]c4ccc(OC5(C)CC5)cc34)ncn2)CCN1C[C@@H]1CCN(CC2CCN(c3ccc4c(c3)C(=O)N(C3CCC(=O)NC3=O)C4=O)CC2)C1 (some centres unmarked) [Compound 113] , result: < 50%

// Dmax lookup, molecule = CC1(Oc2ccc3[nH]nc(-c4cc(N5CCN(C[C@H]6CCN(CC7CCN(c8ccc9c(c8)C(=O)N(C8CCC(=O)NC8=O)C9=O)CC7)C(=O)C6)CC5)ncn4)c3c2)CC1 (single isomer, unassigned) [Compound 104] , result: < 50%

---

# TESTED TARGET: LRRK2 (endogenous, HiBit tagged) (Homo sapiens, UniProt Q5S007)
# Construct: endogenous in cells; host or cells: HEK293 cells with HiBit knock-in at the endogenous LRRK2 locus, stably expressing firefly luciferase
# EXPERIMENT: Endogenous LRRK2 degradation assay, endogenous gene C-terminally HiBit-tagged in HEK293 cells (Nano-Glo Dual Luciferase)
# Format: cell-based
# TEST SETTINGS: endogenous HiBit-tagged LRRK2 in HEK293 cells, 24 hours treatment; read-out: Endogenous WT Dmax
Measured Dmax of individual entries

Solved entries (count: 4):
| COMPOUND | DATA VALUE |
| --- | --- |
| CC1(Oc2ccc3[nH]nc(-c4cc(N5CCN(C[C@H]6CC[C@H](OC7CCN(c8ccc9c(c8F)CN(C8CCC(=O)NC8=O)C9=O)CC7)CC6)C(C)(C)C5)ncn4)c3c2)CC1 (some centres unmarked) | < 50% |
| CC1(Oc2cc3c(-c4cc(N5CCC(O[C@H]6CC[C@H](OC7CCN(c8ccc9c(c8F)CN(C8CCC(=O)NC8=O)C9=O)CC7)CC6)CC5)ncn4)n[nH]c3cn2)CC1 (some centres unmarked) | ≥ 70% |
| COc1c(N2CCC(O[C@H]3CC[C@H](OC4CCN(c5cc(-c6n[nH]c7cnc(OC8(C)CC8)cc67)ncn5)CC4)CC3)CC2)ccc2c1CN(C1CCC(=O)NC1=O)C2=O (some centres unmarked) | 50 to 70% |
| C[C@H]1CN(CC2CCN(c3cc(-c4n[nH]c5ccc(OC6(C)CC6)cc45)ncn3)CC2)CCN1CC1CCN(c2ccc3c(c2F)CN(C2CCC(=O)NC2=O)C3=O)CC1 (some centres unmarked) | ≥ 70% |

Field: next compound
// Dmax lookup, compound = CC1(Oc2ccc3[nH]nc(-c4cc(N5CCC(OC6CCC7(CC6)CN(c6ccc8c(c6F)CN(C6CCC(=O)NC6=O)C8=O)C7)CC5)ncn4)c3c2)CC1 (centres unmarked) , result: 50 to 70%

---

# TESTED TARGET: LRRK2 (endogenous, HiBit tagged) (Homo sapiens, UniProt Q5S007)
# Construct: endogenous in cells; host or cells: HEK293 cells with HiBit knock-in at the endogenous LRRK2 locus, stably expressing firefly luciferase
# EXPERIMENT: Endogenous LRRK2 degradation assay, endogenous gene C-terminally HiBit-tagged in HEK293 cells (Nano-Glo Dual Luciferase)
# Format: cell-based
# TEST SETTINGS: endogenous HiBit-tagged LRRK2 in HEK293 cells, 24 hours treatment; read-out: *Endogenous WT DC50
# Procedure: Exemplary Assay for Testing LRRK2 Degradation Driven by Exemplary Hetero-Bifunctional Compounds Designed to Target LRRK2 The assay measures the degradation of LRRK2 in cells where the C-terminus (3′) of the endogenous gene has been tagged with a HiBit sequence in HEK293 cells. […] Day 3—HiBit Assay. […] Fluorescence of each plate was read on a plated reader for the Alamar Blue viability assay. […] The One Glo luciferase mixture was prepared. […] The luminescence of each plate was read on a plate reader. […]
Measured DC50 of individual entries

Solved entries (count: 2):
| COMPOUND | OUTCOME MEASURE | DATA VALUE |
| --- | --- | --- |
| COc1c(N2CCC(CN3CCN(CC4CCN(c5cc(-c6n[nH]c7cnc(OC8(C)CC8)cc67)ncn5)CC4)C[C@H]3C)CC2)ccc2c1CN(C1CCC(=O)NC1=O)C2=O (stereo partly drawn) [Compound 283] | DC50 | < 10 nM |
| CC1(Oc2ccc3n[nH]c(-c4cc(N5CCC6(CC5)CN([C@H]5C[C@H](OC7CCN(c8ccc9c(c8F)CN(C8CCC(=O)NC8=O)C9=O)CC7)C5)C6)ncn4)c3c2)CC1 (stereo partly drawn) | DC50 | < 10 nM |

Field: next compound
// DC50 lookup, compound = COc1c(N2CCC(O[C@H]3CC[C@H](CN4CCN(c5cc(-c6n[nH]c7cnc(OC8(C)CC8)cc67)ncn5)CC4)CC3)CC2)ccc2c1CN(C1CCC(=O)NC1=O)C2=O (stereo partly drawn) , result: < 10 nM

---

Measured DC50 of individual entries
# TESTED TARGET: LRRK2 (endogenous, HiBit tagged) (Homo sapiens, UniProt Q5S007)
# Construct: endogenous in cells; host or cells: HEK293 cells with HiBit knock-in at the endogenous LRRK2 locus, stably expressing firefly luciferase
# EXPERIMENT: Endogenous LRRK2 degradation assay, endogenous gene C-terminally HiBit-tagged in HEK293 cells (Nano-Glo Dual Luciferase)
# Type: cell-based
# TEST SETTINGS: endogenous HiBit-tagged LRRK2 in HEK293 cells, 24 hours; read-out: *Endogenous WT DC50

Solved entries (count: 4):
| COMPOUND | OUTCOME MEASURE | DATA VALUE |
| --- | --- | --- |
| C[C@H]1CN(c2cc(-c3n[nH]c4ccc(OC5(C)CC5)cc34)ncn2)CCN1CCC1(F)CCN(CC2CCN(c3ccc4c(c3)C(=O)N(C3CCC(=O)NC3=O)C4=O)CC2)CC1 (some centres unmarked) [Compound 52] | DC50 | 10 to 50 nM |
| C[C@H]1CN(c2cc(-c3[nH]nc4ccc(OC5(C)CC5)cc34)ncn2)CCN1CCN1CCC(C(=O)N2CCN(c3ccc4c(c3)C(=O)N(C3CCC(=O)NC3=O)C4=O)CC2)CC1 (some centres unmarked) [Compound 58] | DC50 | < 10 nM |
| CC1(Oc2ccc3[nH]nc(-c4cc(N5CCN(C[C@H]6CC(=O)N(CC7CCN(c8ccc9c(c8)C(=O)N(C8CCC(=O)NC8=O)C9=O)CC7)C6)CC5)ncn4)c3c2)CC1 (single isomer, unassigned) [Compound 120] | DC50 | < 10 nM |
| C[C@H]1CN(c2cc(-c3[nH]nc4ccc(OC5(C)CC5)cc34)ncn2)CCN1CCC1(F)CCN(CC2CCN(c3ccc4c(c3)CN(C3CCC(=O)NC3=O)C4=O)CC2)CC1 (some centres unmarked) [Compound 64] | DC50 | < 10 nM |

// DC50 lookup, compound = CC1(Oc2ccc3n[nH]c(-c4cc(N5CCC(CN6CCN(CC7CCN(c8ccc9c(c8)CN(C8CCC(=O)NC8=O)C9=O)CC7)CC6)CC5)ncn4)c3c2)CC1 (centres unmarked) [Compound 112] , result: < 10 nM
